- Test system: Canis familiaris
- Protocol text: Time required for vasodilator response at 0.80 mg/kg dose
- Assay type: functional, Canis lupus familiaris
- Measurement parameters: dose 0.8 mg/kg
# Duration listing for each entry below
State the answer as a number, implicitly in min.

[[record]]
compound = "COc1cc([S+](C)[O-])ccc1-c1nc2cccnc2[nH]1 (centres undefined)"
endpoint_value = 30


Note: attention shifts to another entry.
Requested read-out: Duration. Entry: COc1cc([S+](C)[O-])ccc1-c1cn2ccnc(OC)c2n1 (centres undefined)
2
